- TARGET OR SYSTEM: HIV-1 Env of CAP256.PI (HIV-1)
- MEASUREMENT NOTES: cell-based or functional assay
MEASUREMENT TYPE: neutralization IC50

According to the records, this binder CAP256-VRC26.02 (antibody, V domains shown) VH: EVQLVESGGGVVQPGRSLRLSCAASQFSFGNYGMHWVRQAPGKGLEWVAAISFAGTKTNYADSVKGRFTISRDNSKNTVYLQMNSLRAEDTALYFCAKDIREYECEYWTSDYYDFGRPQPCIDSRGVVGTFDVWGQGTMVTVSS VL: QSVLTQPPSVSAAPGQKVTISCSGSNSNIGNKDVSWYQQIPATAPKLLIYENNKRPSGISDRFSGSKSGTSATLAITGLQTGDEADYYCATWDGRVSVIGTGTNVIVLG displays neutralization IC50 of > 50 µg/mL

Recorded neutralization IC50 (binder CAP256-VRC26.10 (antibody, V domains shown) VH: QAILVESGGGVVQPGRSLRLSCAASQFTFSGHGLHWVRQAPGKGLEWVASISFAGTKMDYADSVKGRFAISRDNSKNTLYLQMNSLRVEDTALYYCAKDMREYECEYWTSDYYDFGRPQPCIDRRGVVGIFDMWGQGTMVTVST VL: QSVLTQPPSVSAAPGQKVTISCSGSSSNIGDNYVSWYQHLPGTAPKLLIYENTRRPSGIPDRFSGSKSGTSATLAITGLQTGDEADYYCGTWDVRPNRGAVFGTGTKVTVLG ): > 50 µg/mL

// neutralization IC50 lookup, binder = CAP256-VRC26.03 (antibody, V domains shown) VH: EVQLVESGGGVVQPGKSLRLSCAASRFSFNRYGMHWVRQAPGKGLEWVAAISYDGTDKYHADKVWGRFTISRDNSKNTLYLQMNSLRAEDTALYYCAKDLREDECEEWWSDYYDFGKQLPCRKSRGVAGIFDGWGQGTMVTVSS VL: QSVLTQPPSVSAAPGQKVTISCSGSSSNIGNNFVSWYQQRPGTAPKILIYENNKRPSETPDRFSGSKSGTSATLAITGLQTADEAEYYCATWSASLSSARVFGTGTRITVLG , result: > 50 µg/mL
